- ASSAY NAME: viability loss with TRAIL in NB7+C8 cells, primary screen, TRAIL sensitizer project, cell-based, ATPlite luminescence (AID 624354)
- CONDITION CONTEXT: at 10 µM
Screen size: about 360,000 compounds; about 3,800 (1.1%) were called active.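 The calls were made as follows: active = compounds causing at least 50% loss of cell viability in the single-dose screen, relative to plate controls; inactive = the rest.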 The sample holds actives, similar compounds and a random draw of the others, so the mix is not that of the screen.
Choose the fitting class; nothing outside active, inactive is accepted.

The following molecules have reported results that may help.
{"MOLECULE": "CC1CCc2c(sc3c2C2=NS(=O)(=O)CCN2C=N3)C1 (configuration not stated)", "LABEL VALUE": "inactive"}
{"MOLECULE": "CN(C)C1=NC[C@H](Cc2ccccc2)N1CCc1ccc(F)cc1", "LABEL VALUE": "inactive"}
{"MOLECULE": "COc1ccc(-c2noc(CNC(=O)C(C)Oc3ccccc3)n2)cc1 (configuration not stated)", "LABEL VALUE": "inactive"}
{"MOLECULE": "CCOc1ccc(CCNC(=O)COC(=O)CCS(=O)(=O)c2ccc(C)cc2)cc1OCC", "LABEL VALUE": "inactive"}
{"MOLECULE": "CN(C)C(=O)CCc1ccc2c3c([nH]c2c1)[C@]1(CCc2ccccc2)[C@@H](C(=O)N2CCCCC2)C[C@H](CC(=O)NCCC2=CCCCC2)C(=O)N1CC3", "LABEL VALUE": "inactive"}
{"MOLECULE": "CC(C)CCN1CCN(Cc2cn[nH]c2C2CCCCC2)CC1CCO (configuration not stated)", "LABEL VALUE": "inactive"}

Now examine the next entry.
Exercise: # outcome recorded in this test, key = "Fc1ccc(/C=N/Nc2nc(-c3cccnc3)nc3ccccc23)cc1"
Key: active
